Catalogue of apparent KD of K4 kissing-loop reporter readings, one per entry.
- Tested on: K4 kissing-loop RNA reporter;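 also: bound reporter read as fluorescence of individual clusters on recovered sequencing chips by microscopy, with normalized cluster intensities fitted with a binding model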
- Measurement protocol: apparent KD of K4 kissing-loop reporter; higher = weaker reporter binding
- Conditions: Eterna round: R107; input ligand: none

| Input sequence | U | apparent KD of K4 kissing-loop reporter |
| --- | --- | --- |
| CCAUCCGAGUCGGCCGCCACUUUGAGUGAUGUUUGGAGUCUGAGUCAACAUAAAUACUUAGUUUAAAGGACCGGGACUUCGGAUG [theeternabot_exclusion_KL_Trp_B_7] | nM | 1020 |
| AGUAAUGAGUGAUGUUCAAUUAGUAAGGAUACCAGUAAUUCAAAAUGCCCUUGGCAGCUUAACGCUACCAAUAGAUUAAUAAUGG [First try - Theophylline A] | nM | 119 |
| AGUAGUUGGACGGCCGCCACUAGAACGCCUUUGCCAAAGGCAGAGGACUAGAGUGAUGUUCUAGCUAGGACCGGGUCCAACUACA [Omei KL Tryp B SS A v4] | nM | 308 |
| UCGGUAUAGUGAUGUUAUAUAGAGAGUGAUACCAGUUUAGAGAGAAACCCUUGGCAGCAUAGAAGAGUAUCAUUGGAGGAGGAGG [#20 K4 Theophylline A Exclusion] | nM | 387 |
| AUGGUUGUCGUAGGAUAUGUAGGUAAUUCCUAUAGCAGUGAUGUUGCUAAUAUCUUGGAAGAAGGAACAGAAGGACGAUAACCAC [KL-SSFMN-B1 #analogue] | nM | 124 |
| UUAGUCUAGAGAAGGAGCGAGUGAUGUUCGCAUGCUAUGAUGAAUUCAUCAUAGUUUAAUCCUCAGGUAGGUCGCUCUAGACAUU [AK7 Exc Arginine B] | nM | 418 |
| AAUGUACAGGGAAGGAGCGCCGUCCAGUGAUGUUGGAGUUAAAUACCAGUGAUGUUGGUUAGGCAGGUAGGUCGCCCUAUAGUAU [#07 K4 Arginine B Exclusion] | nM | 117 |
| UAUAUAGUGACGGCCGCCACUAUAUUAAUGUUUUUGUUAGAGUGAUGUUUUGUUUAAUAUUUUUAUAGGACCGGGUUAUAUGUUA [zsqqxmullin] | nM | 641 |
| UGAUACCAGGCGGCCGCCACUCCUACAGGUCAAAGACCUGUAGAACUGGUUUUUUAGUGAUGUUGGAGGACCGGGCCUGGUAUCU [FiskerMod 30 - Jieux - Exclusion - Tryptophan B] | nM | 394 |
| AAUGCGCAGGGAAGGAGCGCCGUCCAGUGAUGUUGGAGUUAAAUACCAGUGAUGUUGGUUAGGCAGGUAGGUCGCCCUAAAGCGC [Exclusion Arginine B GF 1] | nM | 92.1 |
| AACGUUUUGAGAAGGAGCGCGUUCAGCAGUGAUGUUGCUUUACUUCAAUUUCUAGAUAAUUCGCAGGUAGGUCGCUCAAUACGUA [JR_Nu_ExcArginiB_Sub023] | nM | 615 |

Measured values drawn from the supplement of paper PMC9170038 for this set.
